Parameter: Hydroxyproline in lung tissues. Scope: all listed entries.
# Test system: bleomycin-induced pulmonary fibrosis model
# experimental_protocol: Comparison with comparative drugs: bleomycin-induced model, hydroxyproline and TGF-β
# Type: in vivo, C57BL/6 mice
# settings: 120 mg/kg/d intragastric, twice every day, 14 days, from two weeks after model; Day 15
Write down the numeric answer in µg/mg and omit the unit.

Look over these answered cases.
molecule=CC(C)n1cnc2[nH]cnc2c1=O measured_value=1.93
molecule="CC(C)n1cnc2c(=O)[nH]cnc21 [Compound 2]" measured_value=1.51

Next up:
Sample `CC(C)Oc1ncnc2nc[nH]c12` ; Hydroxyproline in lung tissues observed: 1.43

###

# System: influenza A virus-induced pulmonary fibrosis model (FM1 strain of influenza A (H1N1) virus)
# experimental_protocol: Influenza A virus-induced pulmonary fibrosis model
# Format: in vivo, C57BL/6 mice
# settings: serum; influenza A (H1N1) FM1 + bleomycin; 120 mg/kg/d intragastric, 14 days, from two weeks after model
// reported NF-κB for each item listed
Field format: number, assumed pg/mL, no unit text.

Examples with answers:
molecule="CC(C)Oc1ncnc2[nH]cnc12 [Compound 1]" measured_value=26.5
molecule="CC(C)Oc1ncnc2c1ncn2C(C)C [Compound 3]" measured_value=24.3
molecule="CCCOc1ncnc2c1ncn2C(C)C [Compound 9]" measured_value=27.1
molecule="CC(=O)Oc1ncnc2c1ncn2C(C)C [Compound 11]" measured_value=26.6

Consider the record given below.
Reported NF-κB of CCC(=O)Oc1ncnc2c1ncn2C(C)C [Compound 12] : 28.1

###

# System: influenza A virus-induced pulmonary fibrosis model (FM1 strain of influenza A (H1N1) virus)
# experimental_protocol: Influenza A virus-induced pulmonary fibrosis model
# Type: in vivo, C57BL/6 mice
# settings: serum; influenza A (H1N1) FM1 + bleomycin; 120 mg/kg/d intragastric, 14 days, from two weeks after model
# Description: Experimental method: an in-vivo influenza A virus-induced pulmonary fibrosis model was established: C57BL/6 mice (with weights being 22-25 g) were randomly and evenly divided into a plurality of groups, including blank control group, model group, Nintedanib positive control group, hypoxanthine analogue A group, hypoxanthine analogue B group, hypoxanthine analogue C group, compound 1 group, compound 2 group . . . compound 12 group, with 9 mice in each group. […]
NF-κB: recorded values
Give your result in pg/mL as a bare value.

Before answering, review these 3 worked examples.
compound="CC(C)Oc1ncnc2c1ncn2C [Hypoxanthine analogue B, reference compound]" measured_value=771.9
compound="O=c1[nH]cnc2[nH]cnc12 [Hypoxanthine analogue A, reference compound]" measured_value=780.3
compound="COc1ncnc2c1ncn2C(C)C [Compound 7]" measured_value=26.4

Kindly note the recorded NF-κB for CCOc1ncnc2c1ncn2C(C)C [Compound 8] , which is 26.8

Notebook: CC(C)n1cnc2c(=O)[nH]cnc21 [Compound 2] , NF-κB read as 25.5

###

# System: mycoplasma-induced pulmonary fibrosis model (MPFH strain)
# experimental_protocol: Mycoplasma-induced pulmonary fibrosis model
# Type: in vivo, C57BL/6 mice
# settings: MPFH mycoplasma + bleomycin; 120 mg/kg/d intragastric, once a day, 14 days, from two weeks after model
quantity: Leucocyte

See these solved cases before continuing.
molecule=CCOc1ncnc2c1ncn2C(C)C quantity=Leucocyte measured_value="7.26 10^9/L"
molecule=CC(C)Oc1ncnc2c1ncn2C(C)C quantity=Leucocyte measured_value="6.83 10^9/L"
molecule=CC(C)Oc1ncnc2nc[nH]c12 quantity=Leucocyte measured_value="6.86 10^9/L"

Next:
Here COC(=O)c1ccc2c(c1)NC(=O)/C2=C(\Nc1ccc(N(C)C(=O)CN2CCN(C)CC2)cc1)c1ccccc1 [Nintedanib, reference compound] was tested on mycoplasma-induced pulmonary fibrosis model (MPFH strain), and its Leucocyte came to 122.15 10^9/L

###

# System: Streptococcus pneumoniae-induced pulmonary fibrosis model
# experimental_protocol: Streptococcus pneumoniae-induced pulmonary fibrosis model
# Format: in vivo, C57BL/6 mice
# settings: Streptococcus pneumoniae + bleomycin; lung tissue HE staining; 120 mg/kg/d intragastric, 14 days
quantity: Ashcroft scores
I'd appreciate a reply containing only the number, no unit.

molecule="CC(C)n1cnc2c(=O)[nH]cnc21 [Compound 2]" measured_value=1.09
molecule="CC(C)Oc1ncnc2c1ncn2C [Hypoxanthine analogue B, reference compound]" measured_value=6.14
molecule="CC(C)Oc1ncnc2nc[nH]c12 [Compound 5]" measured_value=1.25
molecule="CCC(=O)Oc1ncnc2c1ncn2C(C)C [Compound 12]" measured_value=1.39
molecule="CC(C)n1cnc2nc[nH]c(=O)c21 [Compound 6]" measured_value=1.27
molecule="CC(C)Oc1ncnc2c1ncn2C(C)C [Compound 3]" measured_value=1.01
molecule="CC(C)Oc1ncnc2c1N(C(C)C)CN2C(C)C [Compound 10]" measured_value=1.38
molecule="CC(=O)Oc1ncnc2c1ncn2C(C)C [Compound 11]" measured_value=1.28

Moving on to another molecule below.
Streptococcus pneumoniae-induced pulmonary fibrosis model assay, molecule CC(C)Oc1ncnc2[nH]cnc12 [Compound 1] , recorded Ashcroft scores = 1.20

###

# Tested on: bleomycin-induced pulmonary fibrosis model
# experimental_protocol: Advanced pulmonary fibrosis: bleomycin-induced model, dosing from three weeks after modelling
# Assay type: in vivo, C57BL/6 mice
# settings: advanced pulmonary fibrosis; blood, Day 15; 120 mg/kg/d intragastric, twice every day, 14 days, from three weeks after model
# Leucocyte per record follows

Take a look at these entries with their results.
compound=CC(C)n1cnc2c(=O)[nH]cnc21 quantity=Leucocyte measured_value="4.16 10^9/L"
compound=CCC(=O)Oc1ncnc2c1ncn2C(C)C quantity=Leucocyte measured_value="4.04 10^9/L"
compound=CC(C)n1cnc2nc[nH]c(=O)c21 quantity=Leucocyte measured_value="4.58 10^9/L"

Leucocyte reading for `CC(C)Oc1ncnc2nc[nH]c12` : 4.34 10^9/L

The reported Leucocyte of the compound `CC(=O)Oc1ncnc2c1ncn2C(C)C` was 4.22 10^9/L

For record `CC(C)Oc1ncnc2ncn(C(C)C)c12` the listed Leucocyte is 4.26 10^9/L

Leucocyte for COC(=O)c1ccc2c(c1)NC(=O)/C2=C(\Nc1ccc(N(C)C(=O)CN2CCN(C)CC2)cc1)c1ccccc1 [Nintedanib, reference compound] is 46.09 10^9/L

Reported Leucocyte for CC(C)Oc1ncnc2c1ncn2C [Hypoxanthine analogue B, reference compound] was 71.35 10^9/L

Summary for this compound, `CC(C)Oc1ncnc2c1ncn2C(C)C` : Leucocyte is 3.98 10^9/L

# Leucocyte of O=c1[nH]cnc2[nH]cnc12 [Hypoxanthine analogue A, reference compound] = 66.48 10^9/L

Form: compound = `CC(C)Oc1ncnc2c1N(C(C)C)CN2C(C)C` ; Leucocyte = 4.26 10^9/L

Lookup result for `CC(C)Oc1ncnc2[nH]cnc12` ; measured Leucocyte: 4.28 10^9/L

Looking up `CCCOc1ncnc2c1ncn2C(C)C` , I see its Leucocyte listed as 4.69 10^9/L

Kindly note the recorded Leucocyte for `CCOc1ncnc2c1ncn2C(C)C` , which is 4.59 10^9/L

###

Each record here notes measured Leucocyte.
# Test system: Streptococcus pneumoniae-induced pulmonary fibrosis model
# experimental_protocol: Streptococcus pneumoniae-induced pulmonary fibrosis model
# Assay type: in vivo, C57BL/6 mice
# settings: Streptococcus pneumoniae + bleomycin; blood, Day 15; 120 mg/kg/d intragastric, 3 times every day, 14 days, from one week after model

See these solved cases before continuing.
compound="CC(C)n1cnc2nc[nH]c(=O)c21 [Compound 6]" measured_value="5.91 10^9/L"
compound="CCC(=O)Oc1ncnc2c1ncn2C(C)C [Compound 12]" measured_value="7.04 10^9/L"
compound="CC(C)Oc1ncnc2c1ncn2C [Hypoxanthine analogue B, reference compound]" measured_value="156.11 10^9/L"

I looked up CC(C)n1cnc2c(=O)[nH]cnc21 [Compound 2] and its Leucocyte for Streptococcus pneumoniae-induced pulmonary fibrosis model was 5.48 10^9/L

Given the compound CCCOc1ncnc2c1ncn2C(C)C [Compound 9] and test system Streptococcus pneumoniae-induced pulmonary fibrosis model, the measured Leucocyte is 6.73 10^9/L

Leucocyte on Streptococcus pneumoniae-induced pulmonary fibrosis model for CC(C)Oc1ncnc2nc[nH]c12 [Compound 5] is 6.75 10^9/L

###

# System: coronavirus-induced pulmonary fibrosis model (HcoV-OC43)
# experimental_protocol: Coronavirus-induced pulmonary fibrosis model
# Assay type: in vivo, C57BL/6 mice
# settings: serum; HcoV-OC43 + bleomycin; 120 mg/kg/d intragastric, 14 days, from two weeks after model
quantity: IL-1β (pg/mL)
Answer format: numeric, pg/mL implied, no suffix.

Previously resolved entries follow.
query_smiles=CC(C)Oc1ncnc2ncn(C(C)C)c12 uom=pg/mL measured_value=35.5
query_smiles=CCCOc1ncnc2c1ncn2C(C)C uom=pg/mL measured_value=35.9
query_smiles=CC(C)Oc1ncnc2c1ncn2C(C)C uom=pg/mL measured_value=31.3

Summary for this molecule, `CC(C)Oc1ncnc2[nH]cnc12` : IL-1β is 31.8

// `CCOc1ncnc2c1ncn2C(C)C` : IL-1β value = 36.6

Documented IL-1β of `CCC(=O)Oc1ncnc2c1ncn2C(C)C` : 35.8

Origin of values: patent US20250188082A1
